target.of.assay: TrkC (Homo sapiens, UniProt Q16288)
Construct: expressed in transfected cells; host or cells: U2OS
Sequence (Q16288 32-839): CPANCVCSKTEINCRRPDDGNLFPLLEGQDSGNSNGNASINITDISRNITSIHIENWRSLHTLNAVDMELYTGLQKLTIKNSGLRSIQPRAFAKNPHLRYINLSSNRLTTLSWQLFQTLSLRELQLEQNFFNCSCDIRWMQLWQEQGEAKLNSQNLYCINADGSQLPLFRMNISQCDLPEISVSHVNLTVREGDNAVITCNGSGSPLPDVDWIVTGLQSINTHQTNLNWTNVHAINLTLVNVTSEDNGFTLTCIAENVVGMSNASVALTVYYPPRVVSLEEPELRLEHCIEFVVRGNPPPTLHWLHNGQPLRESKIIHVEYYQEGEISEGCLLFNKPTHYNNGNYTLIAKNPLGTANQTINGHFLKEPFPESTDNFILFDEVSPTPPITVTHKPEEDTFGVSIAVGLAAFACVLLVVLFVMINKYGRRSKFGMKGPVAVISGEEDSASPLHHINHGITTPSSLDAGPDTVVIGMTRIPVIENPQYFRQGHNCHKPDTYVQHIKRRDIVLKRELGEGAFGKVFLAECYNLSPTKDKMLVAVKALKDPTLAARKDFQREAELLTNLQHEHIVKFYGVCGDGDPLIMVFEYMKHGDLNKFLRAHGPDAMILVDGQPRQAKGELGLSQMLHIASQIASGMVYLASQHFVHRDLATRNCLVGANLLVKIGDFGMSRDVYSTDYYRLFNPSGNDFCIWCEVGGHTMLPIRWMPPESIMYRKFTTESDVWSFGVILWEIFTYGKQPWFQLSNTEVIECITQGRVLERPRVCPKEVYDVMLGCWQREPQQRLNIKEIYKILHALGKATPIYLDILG
assay.text: Enzyme Fragment Complementation cell-based assay, TrkC
condition.parameters: U2OS-cells over-expressing TrkC; ligand NT-3 10 ng/mL
I'd be grateful if you could share measured TrkC efficacy, % stimulation over 10 ng/mL of ligand for these entries.
Numbers only, in %.

| molecule | meas.value |
| --- | --- |
| Cc1cc(-n2c(=O)[nH]c(=O)n(C)c2=O)ccc1Oc1ccc([S+]([O-])C(F)(F)F)cc1 (stereo not drawn) [Compound 3] | 74 |
| Cc1cc(-n2c(=O)[nH]c(=O)n(C)c2=O)ccc1Oc1ccc(SC(F)(F)F)cc1 [Compound 1] | 87 |
| Cc1cc(-n2c(=O)[nH]c(=O)n(-c3ccccc3)c2=O)ccc1Oc1ccc(S(=O)(=O)C(F)(F)F)cc1 [Compound 6] | 124 |
| Cc1cc(-n2c(=O)[nH]c(=O)n(C)c2=O)ccc1Oc1ccc(S(=O)(=O)C(F)(F)F)cc1 [Compound 2] | 70 |
| Cc1cc(-n2c(=O)[nH]c(=O)n(-c3ccccc3)c2=O)ccc1Oc1ccc([S+]([O-])C(F)(F)F)cc1 (stereo not drawn) [Compound 4] | 69 |

Now for a further molecule.
TrkC efficacy, % stimulation over 10 ng/mL of ligand for Cc1cc(-n2c(=O)[nH]c(=O)n(-c3ccccc3)c2=O)ccc1Oc1ccc(SC(F)(F)F)cc1 [Compound 5] ? 84

---

target.of.assay: TrkA (Homo sapiens)
Construct: expressed in transfected cells; host or cells: U2OS
Sequence (P04629 33-796): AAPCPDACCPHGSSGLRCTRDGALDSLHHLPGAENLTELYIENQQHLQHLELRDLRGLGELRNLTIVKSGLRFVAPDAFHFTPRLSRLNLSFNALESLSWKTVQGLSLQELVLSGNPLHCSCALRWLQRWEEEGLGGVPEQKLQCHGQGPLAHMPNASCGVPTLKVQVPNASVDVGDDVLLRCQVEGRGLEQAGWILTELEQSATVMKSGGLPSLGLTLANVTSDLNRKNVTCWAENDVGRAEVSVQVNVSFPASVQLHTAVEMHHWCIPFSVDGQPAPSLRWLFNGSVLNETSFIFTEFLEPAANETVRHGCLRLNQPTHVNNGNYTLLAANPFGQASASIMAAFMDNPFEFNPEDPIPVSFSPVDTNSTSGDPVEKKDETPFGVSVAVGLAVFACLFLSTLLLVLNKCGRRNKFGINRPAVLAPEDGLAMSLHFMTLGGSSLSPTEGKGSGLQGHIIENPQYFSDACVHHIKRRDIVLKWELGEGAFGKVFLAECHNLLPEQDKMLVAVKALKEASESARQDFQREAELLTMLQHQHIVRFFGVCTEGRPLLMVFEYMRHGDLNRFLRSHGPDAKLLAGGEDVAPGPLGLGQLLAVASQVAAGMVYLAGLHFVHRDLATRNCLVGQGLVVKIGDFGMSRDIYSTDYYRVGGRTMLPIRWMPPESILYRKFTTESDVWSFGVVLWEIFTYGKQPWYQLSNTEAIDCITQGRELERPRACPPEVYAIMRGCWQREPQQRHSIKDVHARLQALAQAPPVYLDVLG
assay.text: Enzyme Fragment Complementation cell-based assay, TrkA
condition.parameters: U2OS-cells over-expressing TrkA; ligand NGF 10 ng/mL
measured.parameter: TrkA efficacy, % stimulation over 10 ng/mL of ligand (%)
One number for each entry, in %.

Known TrkA efficacy, % stimulation over 10 ng/mL of ligand results, listed for orientation:
| molecule | meas.value |
| --- | --- |
| Cc1cc(-n2c(=O)[nH]c(=O)n(-c3ccccc3)c2=O)ccc1Oc1ccc(SC(F)(F)F)cc1 [Compound 5] | 112 |
| Cc1cc(-n2c(=O)[nH]c(=O)n(-c3ccccc3)c2=O)ccc1Oc1ccc(S(=O)(=O)C(F)(F)F)cc1 [Compound 6] | 147 |
| Cc1cc(-n2c(=O)[nH]c(=O)n(C)c2=O)ccc1Oc1ccc(SC(F)(F)F)cc1 [Compound 1] | 109 |
| Cc1cc(-n2c(=O)[nH]c(=O)n(C)c2=O)ccc1Oc1ccc(S(=O)(=O)C(F)(F)F)cc1 [Compound 2] | 138 |
| Cc1cc(-n2c(=O)[nH]c(=O)n(-c3ccccc3)c2=O)ccc1Oc1ccc([S+]([O-])C(F)(F)F)cc1 (stereo not drawn) [Compound 4] | 128 |

Name the recorded TrkA efficacy, % stimulation over 10 ng/mL of ligand for Cc1cc(-n2c(=O)[nH]c(=O)n(C)c2=O)ccc1Oc1ccc([S+]([O-])C(F)(F)F)cc1 (stereo not drawn) [Compound 3] . 143
